Origin of measurements: the supplement of paper PMC6555819

Tested on: PPARg:RXRa DBDmut IVT, anti-RXR (DBD mutation: RXRa K156A/R161A, NR concentration 270 nM, RXRa partner concentration 90 nM)
measurement_notes: PBM binding z-score (relative to random genomic background probes); higher = stronger binding; sequences stand for … in GC…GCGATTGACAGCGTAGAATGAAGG
Lab note: anything with PBM binding z-score at or over 2 counts as Yes; the rest go in No.

Study these solved cases before continuing.
CAAACTAGGCCAAAGGTCAAAGTCGAGCCAACCA	Yes
AGAGACAGGTGAGTGAAGGTAACTCAGCTGGACG	No
GCGACTGGGGCCTCAGCAGGTTACCATAACTTAA	No
AATAGCAGGCCAAGTTTGGGTCACTCAAACAAAG	No
ACTAACGGGTCAACGAGGTTATAGCACGCGTATA	No
GGAACGAGGGCGTTCGAGTTGATAGCATGGCGAT	No

Record "ATCGAAAGGTCGACGAGGTGACTATACACCGTTT" ; criterion: PBM binding z-score no lower than 2. Met? No

PBM binding z-score >= 2 for "CCGACTGGGGCATGAGGTTACCATAAGCCAGCCC" ? Yes

PBM binding z-score >= 2 for "GCTTGTAGATCAAGGTTACGAAAGACTAAGCTAA" ? No

Threshold query (PBM binding z-score >= 2) on "GCGATTGGGGCATCAGCAGGTTACCATAACTTAA" No

Has "CCAGACAGGTGAGAAGGTAACCCAGCCTCGATTA" a recorded PBM binding z-score greater than or equal to 2? No

Is reported PBM binding z-score greater than or equal to 2 here: "TCATATTGGTAAACAGGTGAAAGTCCGTAAGTTA" Yes
